Values compiled from patent US20260193326A1.

biological target: T1, AAV5 (adeno-associated virus serotype 5); assay: SPR, AAV on CM5 chip
T1 construct: also called adeno-associated virus serotype 5
metric name: Kd (nM)
Give just the numeric value; nM need not be written.

Prompt: Name the reported Kd value associated with the binder A4-H3 (VHH) VHH: VQLQASGGGFVQPGGSLRLSCAASGSIFSINLMGWFRQAPGKERELVAVITPGGNTYYADSVKGRFTISRDNSKNTVYLQMNSLRAEDTATYYCHVDEVRQSSWTTSNLWGQGTQVTVSS
Completion: 3.05

Prompt: Quick check: Kd of A4-H4 (VHH) VHH: VQLVESGGGLVQPGGSLRLSCAASGSIFSINLMGWFRQAPGKGLELVAIITPGGNTYYADSVKGRFTISRDNSKNTVYLQMNSLRAEDTAVYYCHVDEVRQSSWTTSNLWGQGTLVTVSS ?
Completion: 2.86

Prompt: Need Kd, item A4-H2 (VHH) VHH: VQLQASGGGFVQPGGSLRLSCAASGRSFSINTMGWFRQAPGKEREFVAVVTRGGSTYYADSVKGRFTISRDNSKNTVYLQMNSLRAEDTATYYCHIDEVRQSSWTTSNIWGQGTQVTVSS
Completion: 8.51

Prompt: GET /values?readout=Kd&item= A4-H5 (VHH) VHH: VQLQASGGGFVQPGGSLRLSCAASGRGFSINTMGWFRQAPGKERELVAVVTRGGTTYYADSVKGRFTISRDNSKNTVYLQMNSLRAEDTAVYYCHVDEVRQSSWTTSNLWGQGTQVTVSS
Completion: 823

Prompt: May I ask what Kd has been recorded for A4-H1 (VHH) VHH: VQLVESGGGLVQPGGSLRLSCAASGRSFSINTMGWFRQAPGKGLEAVAIVTRGGSTYYADSVKGRFTISRDNSKNTLYLQMNSLRAEDTAVYYCHIDEVRQSSWTTSNIWGQGTLVTVSS ?
Completion: 8.76

Prompt: Bench note: what Kd did A4-H6 (VHH) VHH: VQLVESGGGLVQPGGSLRLSCAASGRGFSINTMGWFRQAPGKGRELVAIVTRGGTTYYADSVKGRFTISRDNSKNTVYLQMNSLRAEDTAVYYCHVDEVRQSSWTTSNLWGQGTLVTVSS show?
Completion: 746
